# Test system: BV-173 (Chronic Myelogenous Leukemia);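 note: after 72 h of two-drug dosing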
# protocol summary: Bliss excess, mean over the matrix (fraction); higher = more synergy
readout type: Bliss excess
Reply with just the number.

Solved cases (2 shown):
COc1nnc2ccc(N3CCC(c4ccc(OCCN5CCN(C)C(=O)[C@H]5C)cc4)CC3)nn12 [AZD5153] + CN(CC[C@H](CSC1=CC=CC=C1)NC2=C(C=C(C=C2)S(=O)(=O)NC(=O)C3=CC=C(C=C3)N4CCC(CC4)[C@H](C5=CC=CC=C5C6=CC=C(C=C6)Cl)O)S(=O)(=O)C(F)(F)F)CCO [AZD4320] (first compound max 1 µM, 7x7, partner max 1 µM)
-0.0879
Cn1cnc2c(F)c(Nc3ccc(Br)cc3Cl)c(C(=O)NOCCO)cc21 [Selumetinib] + C=CCn1c(=O)c2cnc(Nc3ccc(N4CCN(C)CC4)cc3)nc2n1-c1cccc(C(C)(C)O)n1 [AZD1775] (first compound max 10 µM, partner max 1 µM)
-0.0026

Exercise: Recorded Bliss excess for Cc1c2c(nn1C)CSCc1cc(n(C)n1)CSc1cc(c3ccccc3c1)OCCCc1c(C(=O)O)n(C)c3c-2c(Cl)ccc13 [AZD5991] + C[C@@H](Nc1cc(F)cc(F)c1)c1cc(C(=O)N(C)C)cc2c(=O)cc(N3CCOCC3)oc12 [AZD8186] (first compound max 1 µM, 7x7, partner max 3 µM) , please?
Solution: -0.0917

* * *

# Test system: KP-2 (Pancreatic Carcinoma)
# protocol summary: combination Emax (second highest fraction inhibited in the dose matrix, 72 h); higher = more inhibition; extreme values may be limits of the assay
readout type: combination Emax
Reply with just the number.

CN(CCO)CC[C@H](CSc1ccccc1)Nc1ccc(S(=O)(=O)NC(=O)c2ccc(N3CCC([C@@H](O)c4ccccc4-c4ccc(Cl)cc4)CC3)cc2)cc1S(=O)(=O)C(F)(F)F [AZD4320] + CN(C)CCCOc1ccc(-c2ccc3ncc4c(c3c2)n(C2CCOCC2)c(=O)n4C)cn1 [AZD0156] (first compound max 1 µM, 7x7, partner max 1 µM)
0.897

Exercise: Recorded combination Emax for CN(CCO)CC[C@H](CSc1ccccc1)Nc1ccc(S(=O)(=O)NC(=O)c2ccc(N3CCC([C@@H](O)c4ccccc4-c4ccc(Cl)cc4)CC3)cc2)cc1S(=O)(=O)C(F)(F)F [AZD4320] + Cc1cc2ncnn2cc1Nc1ncc2c(n1)n(C1CCOCC1)c(=O)n2C [AZD7648] (first compound max 1 µM, 7x7, partner max 10 µM) , please?
Solution: 0.857

Exercise: Item: COc1nnc2ccc(N3CCC(c4ccc(OCCN5CCN(C)C(=O)[C@H]5C)cc4)CC3)nn12 [AZD5153] + C[C@@H]1COCCN1C2=NC(=NC(=C2)C3(CC3)[S@](=N)(=O)C)C4=C5C=CNC5=NC=C4 [AZD6738] (first compound max 1 µM, 7x7, partner max 10 µM)
Solution: 0.432

Exercise: Item: CCc1c2c(nc3ccc(O)cc13)-c1cc3c(c(=O)n1C2)COC(=O)[C@]3(O)CC [SN-38] + O=C(c1cc(Cc2n[nH]c(=O)c3ccccc23)ccc1F)N1CCN(C(=O)C2CC2)CC1 [Olaparib] (first compound max 0.3 µM, 7x7, partner max 10 µM)
Solution: 0.55

Exercise: Item: CN(CCO)CC[C@H](CSc1ccccc1)Nc1ccc(S(=O)(=O)NC(=O)c2ccc(N3CCC([C@@H](O)c4ccccc4-c4ccc(Cl)cc4)CC3)cc2)cc1S(=O)(=O)C(F)(F)F [AZD4320] + C[C@@H](Nc1cc(F)cc(F)c1)c1cc(C(=O)N(C)C)cc2c(=O)cc(N3CCOCC3)oc12 [AZD8186] (first compound max 1 µM, 7x7, partner max 3 µM)
Solution: 0.827

Exercise: Item: CC1(C)CCC(CN2CCN(c3ccc(C(=O)NS(=O)(=O)c4ccc(NCC5CCOCC5)c([N+](=O)[O-])c4)c(Oc4cnc5[nH]ccc5c4)c3)CC2)=C(c2ccc(Cl)cc2)C1 [Venetoclax] + C1CN(CCC1(C(=O)N[C@@H](CCO)C2=CC=C(C=C2)Cl)N)C3=NC=NC4=C3C=CN4 [Capivasertib] (first compound max 1 µM, 7x7, partner max 3 µM)
Solution: 0.0692
